assay_name: inhibition of 3D7 malaria parasite growth – strain 3D7 (AID 2306);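 further: 0% = DMSO wells and 100% = chloroquine plus artemisinin control wells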
protocol_conditions: P. falciparum 3D7 erythrocytic growth, LDH absorbance, 72 h; at 2 µM; active compounds read high
# growth inhibition listing for each entry below
State the answer as a number, implicitly in %.

Cc1cc(NC2CCN(Cc3ccccc3)CC2)nc(NCCCCc2ccccc2)n1    100
CC(C)CNC(=O)c1ccnc(-c2ccc(CNC3Cc4ccccc4C3)cc2)c1    99
CN1CCN(CCCN(Cc2ccc(-c3ccc(CNC4CCCC4)cc3)cc2)C(=O)CCC2CCCC2)CC1    98
O=C(/C=C/c1ccc(Cl)c(Cl)c1)NCCCCCN1CCC(NC(=O)Nc2ccc(Cl)c(Cl)c2)CC1    102
COc1cc(Cc2cnc(N)nc2N)cc(OCCCc2cc(OCc3ccccc3)no2)c1OC    86

What the record says about `Cc1cccc2[nH]c(-c3cccc(-c4ccc(CNCCc5ccncc5)cc4)c3)nc12` : growth inhibition is 100

Sure, the documented growth inhibition for `O=c1cc(NCCCNCc2ccc(C(F)(F)F)s2)[nH]c2ccccc12` is 99

compound `Oc1c(Cl)cc(-c2ccccc2)cc1CNC1CCCCC1` , growth inhibition observed: 97

Entry `S=c1nc(-c2ccccc2)n2ccsc2n1` — recorded growth inhibition = 95

// growth inhibition lookup, compound = `NC(=O)c1cccc(CNC(=O)NC[C@H]2CN(Cc3ccc(Cl)c(Cl)c3)CCO2)c1` , result: 98

// sample `Cc1cn(CC(=O)Nc2cccc(-c3cccc(-c4nc5c(C)cccc5[nH]4)c3)c2)c(=O)[nH]c1=O` , its growth inhibition was 100

Value of measured growth inhibition for the entry `CC1(C)N=C(N)N=C(N)N1OCc1cc2ccccc2cc1CON1C(N)=NC(N)=NC1(C)C` : 92

The reported value for Cc1cc(NC(=O)c2cccs2)ccc1OC1CCN(Cc2ccc(F)cc2)C1 (stereo unspecified) in terms of growth inhibition is 95

Sure, the documented growth inhibition for `Cc1ccc(C)c(CC(=O)N2CCC(n3c(C)nc4ccc(F)cc43)CC2)c1` is 100

Lab book: growth inhibition of `CC1(C)N=C(N)N=C(N)N1OCc1cc(Cl)cc2c1OCOC2` noted as 95

// growth inhibition value for `Cc1[nH]c(C)c([N+](=O)[O-])c(=O)c1-c1ccc(Oc2ccccc2)cc1` : 98

# credit: PubChem BioAssay
